# Tested on: NCI-H2087
# Experiment: relative viability (nuclei count vs DMSO), 5 days (fraction); higher = more cells survive
# Condition Parameters: first compound 1.265 µM
criterion met if relative viability is below 0.8. criterion not met if not; exact matches included in criterion not met.

- Molecule: "O=C(O)c1ccc(-c2c[nH]c3ncc(-c4ccccc4)cc23)cc1C1CCCC1 + Cc1nc(Nc2ncc(C(=O)Nc3c(C)cccc3Cl)s2)cc(N2CCN(CCO)CC2)n1 [Dasatinib] (partner 0.075 µM)"
  Class: "criterion met"
- Molecule: "O=C(O)c1ccc(-c2c[nH]c3ncc(-c4ccccc4)cc23)cc1C1CCCC1 + CCNC(=O)c1noc(-c2cc(C(C)C)c(O)cc2O)c1-c1ccc(CN2CCOCC2)cc1 [Luminespib] (partner 0.01 µM)"
  Class: "criterion met"
- Molecule: "O=C(O)c1ccc(-c2c[nH]c3ncc(-c4ccccc4)cc23)cc1C1CCCC1 + Nc1ncn([C@H]2C[C@H](O)[C@@H](CO)O2)c(=O)n1 [Decitabine] (partner 2 µM)"
  Class: "criterion met"
- Molecule: "O=C(O)c1ccc(-c2c[nH]c3ncc(-c4ccccc4)cc23)cc1C1CCCC1 + C[C@@H](Oc1cc(-c2cnn(C3CCNCC3)c2)cnc1N)c1c(Cl)ccc(F)c1Cl [Crizotinib] (partner 1 µM)"
  Class: "criterion met"
- Molecule: "O=C(O)c1ccc(-c2c[nH]c3ncc(-c4ccccc4)cc23)cc1C1CCCC1 + NC(=O)Nc1cc(-c2cccc(F)c2)sc1C(=O)N[C@H]1CCCNC1 [AZD7762] (partner 0.2 µM)"
  Class: "criterion not met"

Hi there! Is relative viability for O=C(O)c1ccc(-c2c[nH]c3ncc(-c4ccccc4)cc23)cc1C1CCCC1 + N=C(N)NC(=N)NCCc1ccccc1 [Phenformin] (partner 250 µM) below 0.8, do you know?
criterion met

Hi there! Is relative viability for O=C(O)c1ccc(-c2c[nH]c3ncc(-c4ccccc4)cc23)cc1C1CCCC1 + C[C@]1(O)C[C@@H](c2nc(-c3ccc4ccc(-c5ccccc5)nc4c3)c3c(N)nccn32)C1 [Linsitinib] (partner 1 µM) below 0.8, do you know?
criterion not met

Hi there! Is relative viability for O=C(O)c1ccc(-c2c[nH]c3ncc(-c4ccccc4)cc23)cc1C1CCCC1 + COc1cccc2cc(-c3nc([C@H]4CC[C@H](C(=O)O)CC4)n4ncnc(N)c34)[nH]c12 [OSI-027] (partner 0.5 µM) below 0.8, do you know?
criterion met

Hi there! Is relative viability for O=C(O)c1ccc(-c2c[nH]c3ncc(-c4ccccc4)cc23)cc1C1CCCC1 + CS(=O)(=O)CCNCc1ccc(-c2ccc3ncnc(Nc4ccc(OCc5cccc(F)c5)c(Cl)c4)c3c2)o1 [Lapatinib] (partner 2 µM) below 0.8, do you know?
criterion not met

Hi there! Is relative viability for O=C(O)c1ccc(-c2c[nH]c3ncc(-c4ccccc4)cc23)cc1C1CCCC1 + Cc1nc(NC(=O)N2CCC[C@H]2C(N)=O)sc1-c1ccnc(C(C)(C)C(F)(F)F)c1 [Alpelisib] (partner 2 µM) below 0.8, do you know?
criterion not met

Hi there! Is relative viability for O=C(O)c1ccc(-c2c[nH]c3ncc(-c4ccccc4)cc23)cc1C1CCCC1 + CC(C)C[C@H](NC(=O)[C@H](Cc1ccccc1)NC(=O)c1cnccn1)B(O)O [Bortezomib] (partner 0.002 µM) below 0.8, do you know?
criterion met

* * *

Catalogue of relative viability values
# Test system: NCI-H2009
# Experiment: relative viability (nuclei count vs DMSO), 5 days (fraction); higher = more cells survive
# Condition Parameters: first compound 0.253 µM
The answer should be a number; do not append a unit.

Worked cases, answers included:
- Molecule: "Oc1nc(-c2ccc(C(F)(F)F)cc2)nc2c1CSCC2 [XAV939] + CC(=O)Nc1cccc(-n2c(=O)n(C3CC3)c(=O)c3c(Nc4ccc(I)cc4F)n(C)c(=O)c(C)c32)c1 [Trametinib] (partner 0.02 µM)"
  relative viability: 0.281
- Molecule: "C=C1C(=O)O[C@@H](CCCCCCCC)[C@@H]1C(=O)O [C-75] + CC(C)C[C@H](NC(=O)[C@H](Cc1ccccc1)NC(=O)c1cnccn1)B(O)O [Bortezomib] (partner 0.002 µM)"
  relative viability: 1.06

// switching to the query molecule
# input molecule: Oc1nc(-c2ccc(C(F)(F)F)cc2)nc2c1CSCC2 [XAV939] + C[C@]1(O)C[C@@H](c2nc(-c3ccc4ccc(-c5ccccc5)nc4c3)c3c(N)nccn32)C1 [Linsitinib] (partner 1 µM) ; wanted: its relative viability
0.904

* * *

# Tested on: NCI-H322M
# Experiment: relative viability (nuclei count vs DMSO), 5 days (fraction); higher = more cells survive
# Condition Parameters: first compound 1.265 µM
Yes if relative viability is below 0.5. No if not; exact matches included in No.

Observe how each entry below is paired with its result.
- Compound: "O=C(O)c1ccc(-c2c[nH]c3ncc(-c4ccccc4)cc23)cc1C1CCCC1 + Cc1nc(NC(=O)N2CCC[C@H]2C(N)=O)sc1-c1ccnc(C(C)(C)C(F)(F)F)c1 [Alpelisib] (partner 2 µM)"
  Class: "No"
- Compound: "O=C(O)c1ccc(-c2c[nH]c3ncc(-c4ccccc4)cc23)cc1C1CCCC1 + CC(=O)c1c(C)c2cnc(Nc3ccc(N4CCNCC4)cn3)nc2n(C2CCCC2)c1=O [Palbociclib] (partner 0.5 µM)"
  Class: "Yes"
- Compound: "O=C(O)c1ccc(-c2c[nH]c3ncc(-c4ccccc4)cc23)cc1C1CCCC1 + Cc1cc(Nc2cc(N3CCN(C)CC3)nc(Sc3ccc(NC(=O)C4CC4)cc3)n2)n[nH]1 [Tozasertib] (partner 0.1 µM)"
  Class: "Yes"
- Compound: "O=C(O)c1ccc(-c2c[nH]c3ncc(-c4ccccc4)cc23)cc1C1CCCC1 + N=C(N)NC(=N)NCCc1ccccc1 [Phenformin] (partner 250 µM)"
  Class: "No"

Please turn your attention to the following entry.
Hi there! Is relative viability for O=C(O)c1ccc(-c2c[nH]c3ncc(-c4ccccc4)cc23)cc1C1CCCC1 + Cc1nc(Nc2ncc(C(=O)Nc3c(C)cccc3Cl)s2)cc(N2CCN(CCO)CC2)n1 [Dasatinib] (partner 0.075 µM) below 0.5, do you know?
Yes

* * *

# Tested on: LXF-289
# Experiment: relative viability (nuclei count vs DMSO), 5 days (fraction); higher = more cells survive
# Condition Parameters: first compound 0.3162 µM
Condition met if relative viability is below 0.9. Condition not met if not; exact matches included in Condition not met.

Observe how each entry below is paired with its result.
- Compound: "NC(=O)Nc1cc(-c2cccc(F)c2)sc1C(=O)N[C@H]1CCCNC1 [AZD7762] + C[C@@H](Oc1cc(-c2cnn(C3CCNCC3)c2)cnc1N)c1c(Cl)ccc(F)c1Cl [Crizotinib] (partner 1 µM)"
  Tgt: "LXF-289"
  Class: "Condition met"
- Compound: "NC(=O)Nc1cc(-c2cccc(F)c2)sc1C(=O)N[C@H]1CCCNC1 [AZD7762] + CC(=O)c1c(C)c2cnc(Nc3ccc(N4CCNCC4)cn3)nc2n(C2CCCC2)c1=O [Palbociclib] (partner 0.5 µM)"
  Tgt: "LXF-289"
  Class: "Condition met"
- Compound: "NC(=O)Nc1cc(-c2cccc(F)c2)sc1C(=O)N[C@H]1CCCNC1 [AZD7762] + N=C(N)NC(=N)NCCc1ccccc1 [Phenformin] (partner 250 µM)"
  Tgt: "LXF-289"
  Class: "Condition met"
- Compound: "NC(=O)Nc1cc(-c2cccc(F)c2)sc1C(=O)N[C@H]1CCCNC1 [AZD7762] + CC1(C)CCC(c2ccc(Cl)cc2)=C(CN2CCN(c3ccc(C(=O)NS(=O)(=O)c4ccc(N[C@H](CCN5CCOCC5)CSc5ccccc5)c(S(=O)(=O)C(F)(F)F)c4)cc3)CC2)C1 [Navitoclax] (partner 0.5 µM)"
  Tgt: "LXF-289"
  Class: "Condition not met"
- Compound: "NC(=O)Nc1cc(-c2cccc(F)c2)sc1C(=O)N[C@H]1CCCNC1 [AZD7762] + Cc1nc(NC(=O)N2CCC[C@H]2C(N)=O)sc1-c1ccnc(C(C)(C)C(F)(F)F)c1 [Alpelisib] (partner 2 µM)"
  Tgt: "LXF-289"
  Class: "Condition not met"

Hi there! Is relative viability for NC(=O)Nc1cc(-c2cccc(F)c2)sc1C(=O)N[C@H]1CCCNC1 [AZD7762] + Cc1cc(Nc2cc(N3CCN(C)CC3)nc(Sc3ccc(NC(=O)C4CC4)cc3)n2)n[nH]1 [Tozasertib] (partner 0.1 µM) below 0.9, do you know?
Condition met

Hi there! Is relative viability for NC(=O)Nc1cc(-c2cccc(F)c2)sc1C(=O)N[C@H]1CCCNC1 [AZD7762] + Nc1ncn([C@H]2C[C@H](O)[C@@H](CO)O2)c(=O)n1 [Decitabine] (partner 2 µM) below 0.9, do you know?
Condition met
